Some molecules, each annotated with its measured % (nmol), relative activity toward acceptor substrate.
System: recombinant β-galactoside-α2,6-sialyltransferase N1C0
Assay: Glycosyl acceptor substrate specificity, monosaccharides and disaccharides
Assay type: biochemical, Photobacterium leiognathi
Conditions: sialyltransferase activity toward lactose set to 100
reported.metric: % (nmol), relative activity toward acceptor substrate (%)

INSERT INTO assay_data (molecule, observed_measurement) VALUES
  ('CC(=O)N[C@H]1C(O)O[C@H](CO)[C@H](O)[C@@H]1O (some centres unmarked)', 35),
  ('CC(=O)N[C@H]1C(O)O[C@H](CO)[C@@H](O)[C@@H]1O (some centres unmarked)', 6),
  ('CO[C@H]1O[C@H](CO)[C@@H](O)[C@H](O)[C@@H]1O [Man-α-OMe, methyl-α-D-mannopyranoside]', 0),
  ('CO[C@@H]1O[C@H](CO)[C@@H](O)[C@H](O)[C@@H]1O [Man-β-OMe, methyl-β-D-mannopyranoside]', 0),
  ('CO[C@H]1O[C@H](CO)[C@@H](O)[C@H](O)[C@H]1O [Glc-α-OMe, methyl-α-D-glucopyranoside]', 0),
  ('CC(=O)N[C@H]1C(O)O[C@H](CO)[C@@H](O[C@@H]2O[C@H](CO)[C@H](O)[C@H](O)[C@H]2O)[C@@H]1O (some centres unmarked)', 205),
  ('CO[C@@H]1O[C@H](CO)[C@H](O)[C@H](O)[C@H]1O [Gal-β-OMe, methyl-β-D-galactopyranoside]', 59),
  ('CO[C@H]1O[C@H](CO)[C@H](O)[C@H](O)[C@H]1O [Gal-α-OMe, methyl-α-D-galactopyranoside]', 2);
